System: CYP1A2 versus CYP1B1
procedure_text: Selectivity index, ratio of IC50 for inhibition of recombinant human CYP1A2 to IC50 for inhibition of recombinant human CYP1B1
condition_info: recombinant human CYP1A2 and recombinant human CYP1B1
selectivity ratio values, listed per item
observation_type: selectivity ratio

smiles_record=Cc1sc(-c2csc(Nc3cc(Cl)cc(Cl)c3)n2)nc1-c1ccccc1 measured=13.4
smiles_record=COc1cc(Nc2nc(-c3nc(-c4ccccc4Cl)cs3)cs2)cc(OC)c1 measured=155
smiles_record=Clc1cc(Cl)cc(Nc2nc(-c3nc(-c4ccccc4)c(-c4ccccc4)s3)cs2)c1 measured=9.77
smiles_record=c1ccc(-c2csc(-c3csc(Nc4ccc(N5CCOCC5)cc4)n3)n2)cc1 measured=247
smiles_record=Fc1ccccc1-c1csc(-c2csc(Nc3ccc(N4CCOCC4)cc3)n2)n1 measured=392
smiles_record=C#CCOc1ccccc1-c1csc(-c2csc(Nc3cccc(F)c3)n2)n1 measured=46.8
smiles_record=c1csc(-c2csc(Nc3ccc(Cn4cncn4)cc3)n2)n1 measured=15.4
smiles_record=Cc1sc(-c2csc(Nc3ccc(N4CCOCC4)cc3)n2)nc1-c1ccncc1 measured=6.2
smiles_record=Clc1cc(Nc2nc(-c3nccs3)cs2)cc(Cl)c1Cl measured=64.8
smiles_record=c1ccc(-c2csc(-c3csc(Nc4ccc(N5CCOCC5)cc4)n3)n2)nc1 measured=905
smiles_record=CCc1sc(-c2csc(Nc3ccc(N4CCOCC4)cc3)n2)nc1-c1ccncc1 measured=22.3
smiles_record=COc1ccc(-c2csc(-c3csc(Nc4cccc(F)c4)n3)n2)cc1OC measured=0.06
smiles_record=Clc1cc(Cl)cc(Nc2nc(-c3nc(-c4ccncc4)cs3)cs2)c1 measured=162
smiles_record=COc1cc(Nc2nc(-c3nc(-c4ccccc4)c(C)s3)cs2)cc(OC)c1 measured=14.1
smiles_record=Cc1sc(-c2csc(Nc3cccc(F)c3)n2)nc1-c1ccncc1 measured=3.14
smiles_record=Fc1ccc(-c2csc(-c3csc(Nc4ccc(N5CCOCC5)cc4)n3)n2)cc1 measured=0.97
smiles_record=C#CCOc1ccccc1-c1csc(-c2csc(Nc3cc(OC)cc(OC)c3)n2)n1 measured=11.8
smiles_record=COc1cccc(-c2csc(-c3csc(Nc4ccc(N5CCOCC5)cc4)n3)n2)c1 measured=174
smiles_record=Clc1ccc(Nc2nc(-c3nccs3)cs2)cc1 measured=18.8
smiles_record=c1csc(-c2csc(Nc3ccc(N4CCOCC4)cc3)n2)n1 measured=236
smiles_record=c1cncc(-c2csc(-c3csc(Nc4ccc(N5CCOCC5)cc4)n3)n2)c1 measured=160
smiles_record=c1cn(Cc2ccc(Nc3nc(-c4nccs4)cs3)cc2)cn1 measured=9.7
